Parameter 'readout' = pIC50; parameter 'system' = UniProt P24941.
# log scale: pIC50 equals minus log10 of the concentration in mol/L

Query: Find the measured pIC50: item `CC(C)NS(=O)(=O)c1ccc2c(c1)/C(=C/c1[nH]cc3c1CCOC3=O)C(=O)N2` , target or system UniProt P24941.
Reply: 7.22

Query: Find the measured pIC50: item `O=C1Nc2ccc(-c3ccccc3)cc2/C1=C/c1[nH]cc2c1CCNC2=O` , target or system UniProt P24941.
Reply: 5.49

Query: Find the measured pIC50: item `O=C1Nc2cc(Cl)ccc2/C1=C/c1[nH]cc2c1CCOC2=O` , target or system UniProt P24941.
Reply: 6.39
